Biological target: Sam68 STAR domain (UniProt Q07666)
Sequence (Q07666 97-283): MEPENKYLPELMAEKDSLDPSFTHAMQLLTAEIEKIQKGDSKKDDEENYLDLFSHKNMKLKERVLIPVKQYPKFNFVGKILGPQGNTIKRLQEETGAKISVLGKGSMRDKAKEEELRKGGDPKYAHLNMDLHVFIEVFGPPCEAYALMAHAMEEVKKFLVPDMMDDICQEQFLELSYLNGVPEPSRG
Assay: fluorescence polarization
Settings: FP buffer, salt, pH and temperature not given in the material; SD from three independent experiments
readout: Kd (µM)
Give bare numbers, in µM.

> print(dat)
                            chain.sequence  value
1  CCCACAGUUUAAAAUUUGAUAAAAUUU [Stxbp5l 1]   15.5

Kindly consider the entry below.
Kd reading for CCCUUACAUUUAAAAGAUGAUUUAAAAA [Stxbp5l 2] : 13.8

* * *

Exercise: for every item that follows, state its recorded pKd.
Biological target: SLM2 (T-STAR) STAR domain
Sequence: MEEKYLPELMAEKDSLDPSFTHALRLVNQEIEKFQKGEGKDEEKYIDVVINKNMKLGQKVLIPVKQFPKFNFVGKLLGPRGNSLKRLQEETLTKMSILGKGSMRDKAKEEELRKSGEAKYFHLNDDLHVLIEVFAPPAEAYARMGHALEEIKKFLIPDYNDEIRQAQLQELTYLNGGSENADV
Assay: fluorescence polarization
Conditions: FP buffer, salt, pH and temperature not given in the material; SD from three independent experiments
One number for each entry, as −log10 of the molar value.

> print(dat)
                             chain.sequence  value
1  CCCUUACAUUUAAAAGAUGAUUUAAAAA [Stxbp5l 2]   4.74

Kindly consider the entry below.
Field pKd (system: SLM2 (T-STAR) STAR domain) for entry CCCACAGUUUAAAAUUUGAUAAAAUUU [Stxbp5l 1] = 4.62
